- test.target: human CTLA-4 (human) (UniProt P16410)
- Sequence (P16410 36-223): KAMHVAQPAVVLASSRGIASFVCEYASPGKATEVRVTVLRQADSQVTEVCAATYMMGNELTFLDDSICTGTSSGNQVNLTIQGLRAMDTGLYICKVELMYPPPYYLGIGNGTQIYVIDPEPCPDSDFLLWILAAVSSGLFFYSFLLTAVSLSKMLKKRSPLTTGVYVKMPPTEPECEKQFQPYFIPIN
- experiment.description: flow cytometry, CHO cells expressing CTLA4
We begin with a simple list: items and their reported MFI at 33.3 nM.
Write the number in MFI without appending the unit.

Entry CD80 E35D/T41S/D46E/M47I/V68M/K93R/E95V IgV-Fc (Fc fusion) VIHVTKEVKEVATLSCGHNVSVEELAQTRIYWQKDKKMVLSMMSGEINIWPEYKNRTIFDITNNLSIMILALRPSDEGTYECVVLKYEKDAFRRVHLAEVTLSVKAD has what MFI at 33.3 nM?
18400

With those in mind, consider the next binder.
Suppose we examine the binder CD80 T13R/Q33R/E35D/M47L/V68M/L85M IgV-Fc (Fc fusion) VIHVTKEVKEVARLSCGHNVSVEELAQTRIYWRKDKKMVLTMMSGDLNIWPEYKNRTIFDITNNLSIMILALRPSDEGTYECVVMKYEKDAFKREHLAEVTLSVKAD ; what MFI at 33.3 nM value has been reported?
13400
